For reference, the following IC50 results for Tyrosine-protein phosphatase non-receptor type 1 (Homo sapiens, UniProt P18031) were taken from various sources.
measurement name: IC50 (nM)

A selection of reference data follows.
O=P(O)(O)C(F)(F)c1sc2c(OCCCC(F)(F)F)cc(CN3CCOCC3)cc2c1Br
386
COC(=O)N[C@@H](Cc1ccccc1)C(=O)N[C@@H](Cc1ccc(NS(=O)(=O)O)cc1)c1csc(-c2ccc(-c3ccccn3)s2)n1
510

A. CC(C)(C)OC(=O)N[C@@H](Cc1ccc(NS(=O)(=O)O)cc1)c1nc(-c2cccc(C(F)(F)F)c2)cs1
B. CC(C)(C)C(=O)N[C@@H](Cc1ccc(NS(=O)(=O)O)cc1)c1nc(Cc2ccccc2)cs1
C. O=C(NCCSC(F)(F)F)c1ccc2sc(C(F)(F)P(=O)(O)O)c(Br)c2c1
Exam item: Sort the 3 compounds by IC50; largest first, smallest last. Write the labels, ordered according to the request.
Marked response: B, A, C
